Measured values drawn from ChEMBL document CHEMBL1136358 for this set.

Target: UniProtKB P06240
Sequence (P06240 whole entry): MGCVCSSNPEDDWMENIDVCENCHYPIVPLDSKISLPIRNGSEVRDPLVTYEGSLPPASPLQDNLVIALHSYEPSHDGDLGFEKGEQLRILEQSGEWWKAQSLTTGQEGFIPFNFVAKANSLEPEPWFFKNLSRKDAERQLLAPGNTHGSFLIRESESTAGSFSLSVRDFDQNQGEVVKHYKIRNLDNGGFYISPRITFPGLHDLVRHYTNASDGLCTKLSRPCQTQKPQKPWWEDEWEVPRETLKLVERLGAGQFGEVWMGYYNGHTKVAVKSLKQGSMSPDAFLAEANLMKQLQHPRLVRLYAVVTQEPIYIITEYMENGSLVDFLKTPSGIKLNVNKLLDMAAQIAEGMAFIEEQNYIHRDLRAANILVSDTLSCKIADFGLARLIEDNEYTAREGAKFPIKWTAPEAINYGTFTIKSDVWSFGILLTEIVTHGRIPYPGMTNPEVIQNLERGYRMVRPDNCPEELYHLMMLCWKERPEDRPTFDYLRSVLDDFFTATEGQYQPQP
Assay: In vitro inhibition of murine Lck kinase.
pIC50: −log10 of the molar value.
Recorded Endpoint: pIC50

>  <Compound>
Cc1nc(NC(=O)OC(C)(C)C)sc1C(=O)NCC1CCCCC1

>  <pIC50>
< 4.30

$$$$
>  <Compound>
Cc1nc(NC(=O)OC(C)(C)C)sc1C(=O)Nc1ccccc1

>  <pIC50>
< 4.30

$$$$
>  <Compound>
Cc1cc(NC(=O)c2sc(NC(=O)OC(C)(C)C)nc2C)c(C)[nH]1

>  <pIC50>
< 4.30

$$$$

Could you report pIC50 for every entry in the following list?
1. Cc1nc(NC(=O)OC(C)(C)C)sc1C(=O)N1CCN(C=O)CC1
2. COC(=O)Nc1nc(C)c(C(=O)Nc2c(C)cc(C)cc2C)s1
3. Cc1nc(NC(=O)OC(C)(C)C)sc1C(=O)NC(C)C(C)C (stereo not drawn)
4. CNC(=O)Nc1nc(C)c(C(=O)Nc2c(C)cc(C)cc2C)s1
5. Cc1cc(C)c(NC(=O)c2sc(NC(=O)c3ccccc3)nc2C)c(C)c1
6. Cc1nc(NC(=O)OC(C)(C)C)sc1C(=O)Nc1c(C(C)C)cccc1C(C)C
7. Cc1cccc(C(C)C)c1NC(=O)c1sc(NC(=O)OC(C)(C)C)nc1C

Reply text:
1: < 4.30; 2: 6.14; 3: < 4.30; 4: 6.77; 5: 6.49; 6: < 4.30; 7: 4.39

Answer for every listed entry: what is its pIC50? The entries follow.
1. Cc1ccccc1NC(=O)c1sc(NC(=O)OC(C)(C)C)nc1C
2. Cc1nc(NC(=O)OC(C)(C)C)sc1C(=O)NCC(C)(C)C
3. Cc1nc(NC(=O)OC(C)(C)C)sc1C(=O)Nc1ccc(Cl)cc1Cl
4. COc1cc(NC(=O)c2sc(NC(=O)OC(C)(C)C)nc2C)cc(C(F)(F)F)c1

Reply text:
1: 4.34; 2: < 4.30; 3: < 4.30; 4: < 4.30

I'm hoping you can list pIC50 for every compound here, please.
1. CCCCNC(=O)Nc1nc(C)c(C(=O)Nc2c(C)cc(C)cc2C)s1
2. Cc1nc(NC(=O)OC(C)(C)C)sc1C(=O)Nc1ccccc1[N+](=O)[O-]
3. Cc1cccc(C(C)(C)C)c1NC(=O)c1sc(NC(=O)OC(C)(C)C)nc1C
4. COc1cccc(C)c1NC(=O)c1sc(NC(=O)OC(C)(C)C)nc1C

Reply text:
1: 7.15; 2: < 4.30; 3: < 4.30; 4: 4.61

----------
Target: Tyrosine-protein kinase Lck (Homo sapiens, UniProt P06239)
Sequence (P06239 whole entry): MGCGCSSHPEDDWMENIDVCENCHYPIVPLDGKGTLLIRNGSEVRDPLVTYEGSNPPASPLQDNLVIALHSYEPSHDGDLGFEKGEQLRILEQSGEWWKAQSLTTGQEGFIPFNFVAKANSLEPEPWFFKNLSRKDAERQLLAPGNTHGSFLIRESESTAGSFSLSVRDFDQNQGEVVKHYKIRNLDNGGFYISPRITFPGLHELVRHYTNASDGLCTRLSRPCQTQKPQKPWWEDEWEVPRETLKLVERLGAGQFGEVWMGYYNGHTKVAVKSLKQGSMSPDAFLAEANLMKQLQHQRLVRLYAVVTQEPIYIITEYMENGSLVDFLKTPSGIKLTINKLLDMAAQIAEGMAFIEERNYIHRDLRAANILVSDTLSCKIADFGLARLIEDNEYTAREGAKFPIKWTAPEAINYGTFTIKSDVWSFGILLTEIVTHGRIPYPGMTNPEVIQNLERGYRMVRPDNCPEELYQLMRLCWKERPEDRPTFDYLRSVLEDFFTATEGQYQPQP
Assay: Inhibition of human p56 Lck tyrosine kinase
Assignment: determine reported pIC50 for the given molecules.
Numbers only, as −log10 of the molar value.

Provide the reported pIC50 of each entry below, same order.
1. Cc1cccc(C)c1NC(=O)c1sc(NC(=O)OC(C)(C)C)nc1C
2. Cc1cc(C)c(NC(=O)c2sc(N)nc2C)c(C)c1
3. Cc1cc(C)c(NC(=O)c2sc(NC(=O)OC(C)(C)C)nc2C)c(C)c1
4. Cc1cccc(Cl)c1NC(=O)c1sc(NC(=O)OC(C)(C)C)nc1C
5. Cc1cc(Br)cc(C)c1NC(=O)c1sc(NC(=O)OC(C)(C)C)nc1C

Reply text:
1: 5.36; 2: 5.30; 3: 5.82; 4: 4.55; 5: 5.85

----------
Biological target: Receptor tyrosine-protein kinase erbB-2 (Homo sapiens, UniProt P04626)
Sequence (P04626 whole entry): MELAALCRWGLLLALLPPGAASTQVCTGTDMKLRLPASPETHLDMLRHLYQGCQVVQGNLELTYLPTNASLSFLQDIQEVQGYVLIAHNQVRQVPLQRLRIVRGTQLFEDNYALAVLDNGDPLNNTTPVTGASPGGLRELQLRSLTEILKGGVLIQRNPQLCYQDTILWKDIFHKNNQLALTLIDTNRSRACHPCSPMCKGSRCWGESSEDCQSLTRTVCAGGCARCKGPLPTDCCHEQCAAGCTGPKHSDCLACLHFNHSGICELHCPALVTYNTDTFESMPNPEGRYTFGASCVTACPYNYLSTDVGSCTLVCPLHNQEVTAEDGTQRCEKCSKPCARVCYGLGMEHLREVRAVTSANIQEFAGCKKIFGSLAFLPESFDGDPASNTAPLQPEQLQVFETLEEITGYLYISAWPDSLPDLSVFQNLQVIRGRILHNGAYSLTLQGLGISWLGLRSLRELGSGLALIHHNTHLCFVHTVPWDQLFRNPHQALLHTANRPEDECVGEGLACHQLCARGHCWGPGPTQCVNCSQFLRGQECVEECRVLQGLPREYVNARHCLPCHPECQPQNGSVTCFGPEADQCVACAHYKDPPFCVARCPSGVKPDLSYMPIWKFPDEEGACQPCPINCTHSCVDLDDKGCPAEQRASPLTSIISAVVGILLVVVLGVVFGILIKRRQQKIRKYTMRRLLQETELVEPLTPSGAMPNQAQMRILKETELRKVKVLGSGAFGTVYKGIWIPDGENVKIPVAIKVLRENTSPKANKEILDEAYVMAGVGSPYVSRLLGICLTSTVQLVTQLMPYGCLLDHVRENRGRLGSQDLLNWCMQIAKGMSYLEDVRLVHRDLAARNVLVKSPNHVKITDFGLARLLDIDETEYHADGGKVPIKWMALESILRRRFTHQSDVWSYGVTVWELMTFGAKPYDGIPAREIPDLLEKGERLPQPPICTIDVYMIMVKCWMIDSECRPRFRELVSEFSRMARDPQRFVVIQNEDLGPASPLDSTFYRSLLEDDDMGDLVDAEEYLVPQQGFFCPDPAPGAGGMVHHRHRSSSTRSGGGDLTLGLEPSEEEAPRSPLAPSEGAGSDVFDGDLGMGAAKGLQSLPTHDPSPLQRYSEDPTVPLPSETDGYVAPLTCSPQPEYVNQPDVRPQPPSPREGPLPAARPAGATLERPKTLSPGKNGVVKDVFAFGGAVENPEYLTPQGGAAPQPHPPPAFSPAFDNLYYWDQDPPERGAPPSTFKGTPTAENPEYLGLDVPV
Recorded Endpoint: IC50

Inquiry: Dear colleague, I am looking for the recorded IC50 of the following compound: Cc1cccc(Cl)c1NC(=O)c1cnc(NC(=O)C2CC2)s1
Reply text: > 25 µM

----------
Molecular target: UniProt P06239
Could you please report measured IC50 for the items listed next?
Numbers only, in nM.

Hey, can you go through the list below and give me IC50 for every item?
1. Cc1cc(C)c(NC(=O)c2sc(NC(=O)c3ccco3)nc2C)c(C)c1
2. COC(=O)Nc1nc(C)c(C(=O)Nc2c(C)cc(C)cc2C)s1
3. CCCCNC(=O)Nc1nc(C)c(C(=O)Nc2c(C)cc(C)cc2C)s1
4. CCCCNC(=O)Nc1nc(C)c(C(=O)Nc2c(C)cccc2Cl)s1

Reply text:
[360, 700, 30, 620]

----------
Molecular target: Tyrosine-protein kinase JAK3 (Homo sapiens, UniProt P52333)
Sequence (P52333 whole entry): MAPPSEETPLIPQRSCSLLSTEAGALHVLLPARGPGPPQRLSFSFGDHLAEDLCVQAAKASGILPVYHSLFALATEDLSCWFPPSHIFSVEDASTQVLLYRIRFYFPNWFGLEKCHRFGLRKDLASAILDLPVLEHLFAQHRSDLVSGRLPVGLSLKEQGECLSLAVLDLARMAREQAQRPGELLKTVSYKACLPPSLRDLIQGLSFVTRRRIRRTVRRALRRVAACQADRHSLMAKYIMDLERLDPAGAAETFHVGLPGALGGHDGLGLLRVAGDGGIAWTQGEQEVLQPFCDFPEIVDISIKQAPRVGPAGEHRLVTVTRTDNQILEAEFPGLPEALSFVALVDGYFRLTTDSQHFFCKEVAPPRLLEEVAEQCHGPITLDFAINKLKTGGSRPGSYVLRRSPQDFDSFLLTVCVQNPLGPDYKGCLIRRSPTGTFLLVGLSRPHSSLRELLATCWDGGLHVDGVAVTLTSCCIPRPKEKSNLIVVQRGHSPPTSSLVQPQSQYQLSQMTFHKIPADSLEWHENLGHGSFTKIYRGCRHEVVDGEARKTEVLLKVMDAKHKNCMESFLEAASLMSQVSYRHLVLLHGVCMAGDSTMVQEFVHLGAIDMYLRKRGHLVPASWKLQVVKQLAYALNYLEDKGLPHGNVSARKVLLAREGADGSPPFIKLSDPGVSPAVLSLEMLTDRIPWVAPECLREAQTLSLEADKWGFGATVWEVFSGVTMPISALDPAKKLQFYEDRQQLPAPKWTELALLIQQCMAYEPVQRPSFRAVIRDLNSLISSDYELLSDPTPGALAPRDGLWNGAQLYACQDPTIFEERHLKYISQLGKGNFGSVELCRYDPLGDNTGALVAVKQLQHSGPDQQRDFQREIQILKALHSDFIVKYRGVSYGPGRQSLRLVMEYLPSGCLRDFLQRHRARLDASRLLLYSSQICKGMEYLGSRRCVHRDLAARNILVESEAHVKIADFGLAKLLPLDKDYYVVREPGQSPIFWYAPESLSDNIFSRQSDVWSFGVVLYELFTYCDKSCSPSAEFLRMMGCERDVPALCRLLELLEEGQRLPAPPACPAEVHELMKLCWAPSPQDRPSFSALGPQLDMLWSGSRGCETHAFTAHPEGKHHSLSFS
Assay: Inhibition of Jak3 kinase
Recorded Endpoint: IC50 (nM)
Numbers only, in nM.

Inquiry: Can you look up the measured IC50 of Cc1cccc(Cl)c1NC(=O)c1cnc(NC(=O)C2CC2)s1 for me?
Reply text: 44

----------
Target: Tyrosine-protein kinase Lck (Homo sapiens, UniProt P06239)
Exercise: for every item that follows, state its recorded IC50.
Give bare numbers, in nM.

Answered cases to consult:
>  <Compound String>
CNC(=O)Nc1nc(C)c(C(=O)Nc2c(C)cc(C)cc2C)s1

>  <Value Unit>
nM

>  <IC50>
240

$$$$
>  <Compound String>
Cc1cccc(Cl)c1NC(=O)c1sc(NC(=O)c2ccco2)nc1C

>  <Value Unit>
nM

>  <IC50>
710

$$$$
>  <Compound String>
Cc1cccc(Cl)c1NC(=O)c1cnc(NC(=O)C2CC2)s1

>  <Value Unit>
nM

>  <IC50>
35

$$$$
>  <Compound String>
Cc1cc(C)c(NC(=O)c2sc(NC(=O)c3ccccc3)nc2C)c(C)c1

>  <Value Unit>
nM

>  <IC50>
800

$$$$
>  <Compound String>
Cc1cccc(Cl)c1NC(=O)c1cnc(NC(=O)c2ccccc2)s1

>  <Value Unit>
nM

>  <IC50>
890

$$$$

Consider the following items and state reported IC50 for each.
1. Cc1cccc(Cl)c1NC(=O)c1sc(NC(=O)C2CC2)nc1C
2. Cc1cc(C)c(NC(=O)c2cnc(NC(=O)C3CC3)s2)c(C)c1
3. Cc1cccc(Cl)c1NC(=O)c1sc(NC(=O)c2ccccc2)nc1C

Reply text:
1: 1400; 2: 18; 3: 4500

----------
Measurement record for Tyrosine-protein kinase Lck (Homo sapiens); quantity recorded: pIC50.
pIC50: −log10 of the molar value.

>  <Compound>
CCc1nc(NC(=O)OC(C)(C)C)sc1C(=O)Nc1c(C)cc(C)cc1C

>  <Target Entity>
Tyrosine-protein kinase Lck (Homo sapiens)

>  <Recorded Endpoint>
pIC50

>  <Result>
< 4.52

$$$$
>  <Compound>
Cc1nc(NC(=O)OC(C)(C)C)sc1C(=O)NC(C)C(C)C (centres undefined)

>  <Target Entity>
Tyrosine-protein kinase Lck (Homo sapiens)

>  <Recorded Endpoint>
pIC50

>  <Result>
< 4.30

$$$$
>  <Compound>
Cc1cc(C)c(NC(=O)c2cnc(NC(=O)OC(C)(C)C)s2)c(C)c1

>  <Target Entity>
Tyrosine-protein kinase Lck (Homo sapiens)

>  <Recorded Endpoint>
pIC50

>  <Result>
< 4.52

$$$$

# input for lookup
Inquiry: Looking for the measured pIC50 of Cc1cc(C)c(NC(=O)c2sc(NC(=O)OC(C)(C)C)nc2C(F)(F)F)c(C)c1 , can you help?
Reply text: < 4.52
